- study system: human CTPS1 (Homo sapiens)
- Sequence (P17812 1-591): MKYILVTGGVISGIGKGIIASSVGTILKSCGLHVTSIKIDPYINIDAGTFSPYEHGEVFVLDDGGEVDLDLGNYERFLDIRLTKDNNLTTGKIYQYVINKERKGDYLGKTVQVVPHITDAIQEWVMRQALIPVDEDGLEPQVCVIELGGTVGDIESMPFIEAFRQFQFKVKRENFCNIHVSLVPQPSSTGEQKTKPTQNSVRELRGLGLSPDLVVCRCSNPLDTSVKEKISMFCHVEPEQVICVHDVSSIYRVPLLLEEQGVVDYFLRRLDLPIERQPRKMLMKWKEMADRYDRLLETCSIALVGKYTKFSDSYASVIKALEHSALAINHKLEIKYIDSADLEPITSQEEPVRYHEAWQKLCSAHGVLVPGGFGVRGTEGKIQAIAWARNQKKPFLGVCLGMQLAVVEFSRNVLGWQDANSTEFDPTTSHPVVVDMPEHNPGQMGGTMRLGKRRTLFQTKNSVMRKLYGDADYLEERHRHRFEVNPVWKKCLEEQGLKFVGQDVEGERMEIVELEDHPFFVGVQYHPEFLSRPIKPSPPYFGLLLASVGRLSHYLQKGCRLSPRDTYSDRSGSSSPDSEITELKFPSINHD
- protocol text: ADP-Glo assay, human CTPS1 enzyme inhibition
- Type: biochemical
- test settings: wild-type human CTPS1, 25 nM enzyme; ADP-Glo; read-out: ADP-Glo_WT_hCTPS1—25 nM_IC50 (IC50)
pIC50: −log10 of the molar value.
metric name: pIC50

Worked examples follow.
- C[C@H](CO)[C@@H](NC(=O)c1ncc(-c2cnn3ccc(Cl)cc23)s1)c1cc(NS(=O)(=O)C2CC2)ccn1: ≥ 8.30
- O=C(N[C@H](CCN1CCCCC1)c1cc(NS(=O)(=O)C2CC2)ccn1)c1ncc(-c2cnn3ccc(Cl)cc23)s1 (single isomer, unassigned): 7.60 to 8.30
- CCOc1cncc(-c2cnc(C(=O)N[C@H](c3cccc(NS(=O)(=O)C(F)F)c3)[C@@H](C)N3CCOCC3)s2)n1: 7.60 to 8.30
- CCOc1cncc(-c2cnc(C(=O)N[C@H](c3cc(NS(=O)(=O)C4CC4)ccn3)[C@H]3C[C@H]4CC[C@@H]3O4)s2)n1: 7.60 to 8.30
- CCOc1cncc(-c2cnc(C(=O)N[C@H](c3cc(NS(=O)(=O)C4CC4)ccn3)[C@@H]3CCCO3)s2)n1: 7.60 to 8.30

Here's the next entry for you.
pIC50 measured on `CCOc1cncc(-c2cnc(C(=O)N[C@@H](c3cc(NS(=O)(=O)C4CC4)ccn3)[C@H]3CCCN3C)s2)n1` = 7.60 to 8.30

---

- study system: UniProtKB P17812
- Sequence (P17812 1-591): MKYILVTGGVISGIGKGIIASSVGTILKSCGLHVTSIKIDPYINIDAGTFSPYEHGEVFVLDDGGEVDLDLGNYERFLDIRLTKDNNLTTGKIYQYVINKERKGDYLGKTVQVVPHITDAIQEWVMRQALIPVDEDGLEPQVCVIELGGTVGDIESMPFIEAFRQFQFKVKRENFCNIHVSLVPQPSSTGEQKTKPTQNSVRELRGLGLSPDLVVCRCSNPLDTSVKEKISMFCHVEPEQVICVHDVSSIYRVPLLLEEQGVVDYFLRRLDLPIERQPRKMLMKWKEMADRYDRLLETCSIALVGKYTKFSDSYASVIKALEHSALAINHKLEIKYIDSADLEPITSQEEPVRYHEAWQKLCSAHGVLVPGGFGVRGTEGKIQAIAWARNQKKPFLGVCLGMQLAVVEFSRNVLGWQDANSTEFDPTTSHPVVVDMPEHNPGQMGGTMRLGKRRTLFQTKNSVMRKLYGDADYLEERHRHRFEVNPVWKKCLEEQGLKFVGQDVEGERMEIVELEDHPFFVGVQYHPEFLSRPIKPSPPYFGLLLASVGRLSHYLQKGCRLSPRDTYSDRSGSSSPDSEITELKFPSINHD
- protocol text: ADP-Glo assay, human CTPS1 enzyme inhibition
- Type: biochemical
- test settings: wild-type human CTPS1, 25 nM enzyme; ADP-Glo; read-out: ADP-Glo_WT_hCTPS1—25 nM_IC50 (IC50)
- Experimental: The enzyme inhibitory activities of the compounds of the invention against the target of interest were determined using the ADP-Glo™ assay (Promega). […] Purified human CTPS1 protein was prepared in 1× assay buffer to the final working protein concentration required for the reaction. […] This mixture was incubated for an appropriate amount of time within the determined linear phase of the reaction at 25 degrees C. under sealed plate conditions with constant agitation at 500 revolutions per minute (rpm). […]
pIC50: −log10 of the molar value. Structures can show the parent of a compound that is named as a salt.
Listed here: items and their measured pIC50.

- CCOc1cncc(-c2cnc(C(=O)N[C@@H](CN3C[C@H]4C[C@@H]3CO4)c3cncc(NS(=O)(=O)C4CC4)n3)s2)n1 [I-252, formic acid salt]: 7.30 to 7.60
- CCOc1cncc(-c2cnc(C(=O)N[C@@H](CN3CCN(C4CC4)CC3)c3cccc(NS(=O)(=O)C(F)F)c3)s2)n1 (single isomer, unassigned): 7.60 to 8.30
- CCOc1cncc(-c2cnc(C(=O)N[C@H](c3cccc(NS(=O)(=O)C(F)F)c3)C3CCOCC3)s2)n1: 7.60 to 8.30
- CCOc1cncc(-c2cnc(C(=O)N[C@H](Cn3ccnn3)c3cccc(NS(=O)(=O)C(F)F)c3)s2)n1: 7.60 to 8.30
- CCOc1cncc(-c2cnc(C(=O)N[C@H](Cn3ccccc3=O)c3cc(NS(=O)(=O)C4CC4)ccn3)s2)n1: 7.30 to 7.60
- CCOc1cncc(-c2cnc(C(=O)N[C@@H](CN3CC4(CCC4)C3)c3cc(NS(=O)(=O)C4CC4)ccn3)s2)n1: 7.30 to 7.60

pIC50 measured on `O=C(N[C@H](CN1CCCC1)c1cc(NS(=O)(=O)C2CC2)ccn1)c1ncc(-c2cnn3ccc(Cl)cc23)s1` = 7.30 to 7.60

pIC50 measured on `COC[C@@H](NC(=O)c1ccc(-c2cnn3ccc(Cl)cc23)cc1F)c1cc(NS(=O)(=O)C2CC2)ccn1` = 7.00 to 7.30

---

- study system: human CTPS1 (Homo sapiens, UniProt P17812)
- Sequence (P17812 1-591): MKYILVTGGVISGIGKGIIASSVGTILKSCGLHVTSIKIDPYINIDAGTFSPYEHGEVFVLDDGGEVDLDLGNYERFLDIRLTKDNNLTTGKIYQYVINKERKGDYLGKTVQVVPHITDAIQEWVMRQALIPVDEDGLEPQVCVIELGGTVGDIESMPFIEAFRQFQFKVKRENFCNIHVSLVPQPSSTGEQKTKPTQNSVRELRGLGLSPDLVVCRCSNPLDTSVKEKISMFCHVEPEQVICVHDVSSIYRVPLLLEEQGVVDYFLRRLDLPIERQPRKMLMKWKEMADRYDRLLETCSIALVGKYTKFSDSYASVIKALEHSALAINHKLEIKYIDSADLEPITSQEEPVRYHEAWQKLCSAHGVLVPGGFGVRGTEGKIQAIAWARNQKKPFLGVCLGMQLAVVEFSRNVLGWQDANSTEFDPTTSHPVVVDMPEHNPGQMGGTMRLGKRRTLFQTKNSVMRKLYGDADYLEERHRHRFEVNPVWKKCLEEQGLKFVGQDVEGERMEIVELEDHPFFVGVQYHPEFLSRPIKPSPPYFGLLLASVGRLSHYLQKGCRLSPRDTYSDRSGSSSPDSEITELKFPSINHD
- protocol text: ADP-Glo assay, human CTPS1 enzyme inhibition
- Format: biochemical
- test settings: wild-type human CTPS1, 25 nM enzyme; ADP-Glo; read-out: ADP-Glo_WT_hCTPS1—25 nM_IC50 (IC50)
- Experimental: The enzyme inhibitory activities of the compounds of the invention against the target of interest were determined using the ADP-Glo™ assay (Promega). […] Purified human CTPS1 protein was prepared in 1× assay buffer to the final working protein concentration required for the reaction. […] This mixture was incubated for an appropriate amount of time within the determined linear phase of the reaction at 25 degrees C. under sealed plate conditions with constant agitation at 500 revolutions per minute (rpm). […]
metric name: IC50

- CCOc1cncc(-c2cnc(C(=O)N[C@@H](CCN(C)C3CCCCC3)c3cc(NS(=O)(=O)C4CC4)ccn3)s2)n1 (single isomer, unassigned) [I-13]: 50 to 100 nM
- CCOc1cncc(-c2cnc(C(=O)N[C@H](c3cccc(NS(=O)(=O)C(F)F)c3)[C@@H]3COCCO3)s2)n1 [I-199]: 5 to 25 nM
- CCOc1cncc(-c2cnc(C(=O)N[C@H](c3cc(NS(=O)(=O)C4CC4)ccn3)[C@H](C)COC)s2)n1 [I-237]: ≤ 5 nM

Here's the next entry for you.
IC50 measured on CCOc1cncc(-c2cnc(C(=O)NCc3cncc(NS(=O)(=O)C4CC4)n3)s2)n1 [I-180] = 5 to 25 nM
